Target: PPAR-α (Homo sapiens, UniProt Q07869)
Construct: expressed in transfected cells; host or cells: CV-1 (African green monkey kidney)
Sequence (Q07869 167-468): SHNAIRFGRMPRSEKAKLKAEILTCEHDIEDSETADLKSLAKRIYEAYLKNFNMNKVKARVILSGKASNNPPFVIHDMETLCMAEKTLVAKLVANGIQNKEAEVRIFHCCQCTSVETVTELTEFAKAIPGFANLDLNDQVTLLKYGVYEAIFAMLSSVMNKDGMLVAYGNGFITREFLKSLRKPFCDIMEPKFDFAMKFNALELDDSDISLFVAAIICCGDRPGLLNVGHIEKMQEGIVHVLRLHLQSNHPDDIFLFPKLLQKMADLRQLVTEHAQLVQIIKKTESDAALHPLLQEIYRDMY
Test: Measurement of PPAR-α activity (GAL4 luciferase reporter assay in CV-1 cells)
Type: cell-based
Conditions: 100(A/B): A = maximum PPAR-α activity of test compound at 3, 10, 30 and 100 μM, B = activity of the compound of WO/2011/058154 at 100 μM, 18 to 20 hours, read-out: Relative fold induction (%) of PPAR α
I'd appreciate it if you could supply Emax values for the items below.
Write the quantity with the unit trailing the number.

For every item in the list below, what is its measured Emax?
1. CSc1cc(F)c(F)cc1-c1ccc(OCc2cccc(C(=O)N(CC(=O)O)Cc3nc(C)no3)c2)cc1 [Example 68]
2. CSc1cc(F)c(F)cc1-c1ccc(OCc2cccc(C(=O)N(CCc3noc(C)n3)CC(=O)O)c2)cc1 [Example 60]
3. CSc1cc(F)c(F)cc1-c1ccc(OCc2cccc(C(=O)N(CC(=O)O)Cc3cnco3)c2)cc1 [Example 47]
4. CSc1cc(F)c(F)cc1-c1ccc(OCc2cccc(C(=O)N(CC(=O)O)CC3CCOCC3)c2)cc1 [Example 34]

OUTPUT:
1: 35%; 2: 14%; 3: 7.3%; 4: 7.3%

For every item below, please supply its Emax.
1. CSc1cc(F)c(F)cc1-c1ccc(OCc2cccc(C(=O)N(CC(=O)O)Cc3ccon3)c2)cc1 [Example 66]
2. O=C(O)[C@@H]1[C@@H](O)CCN1C(=O)c1cccc(COc2ccc(-c3cc(F)c(F)c4ccoc34)cc2)c1 [Example 2]
3. CNS(=O)(=O)CCN(CC(=O)O)C(=O)c1cccc(COc2ccc(-c3cc(F)c(F)cc3SC)cc2)c1 [Example 56]

OUTPUT:
["22%", "5%", "8%"]

FYI, the data here is from patent US20160046592A1.
